Biological target: T1, human MSLN-FL-his protein (human, UniProt Q13421 296-580)
T1 construct: Made in HEK293E cells, purified on nickel column; also called hMSLN-FL-his; human MSLN full-length protein; not shown: His tag
T1 sequence (Q13421 other isoform, or with tags, fused parts or gaps): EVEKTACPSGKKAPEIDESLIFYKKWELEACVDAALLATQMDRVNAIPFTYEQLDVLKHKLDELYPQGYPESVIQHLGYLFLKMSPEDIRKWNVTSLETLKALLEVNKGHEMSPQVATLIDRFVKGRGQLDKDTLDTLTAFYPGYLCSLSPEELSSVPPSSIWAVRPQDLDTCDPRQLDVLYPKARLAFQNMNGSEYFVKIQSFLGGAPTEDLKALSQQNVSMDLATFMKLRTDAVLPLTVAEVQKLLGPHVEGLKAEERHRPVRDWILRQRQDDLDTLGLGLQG
Assay: ELISA, coated antigen, antibody 0.002 nM
quantity: OD450
Please reply with the number alone, leaving off any unit.

Q: Please report the recorded OD450 for S009-F7.18.10 chimeric antibody (antibody, human IgG1, kappa, V domains shown, Human-murine chimeric antibody, human IgG1/kappa constant regions) VH: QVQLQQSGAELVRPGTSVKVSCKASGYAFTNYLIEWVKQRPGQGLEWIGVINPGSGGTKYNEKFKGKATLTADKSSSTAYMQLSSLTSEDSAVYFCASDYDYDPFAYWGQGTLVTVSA VL: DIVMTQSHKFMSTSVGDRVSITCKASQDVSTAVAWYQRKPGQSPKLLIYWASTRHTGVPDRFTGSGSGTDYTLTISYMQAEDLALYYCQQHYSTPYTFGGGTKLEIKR .
Result: 0.97

Q: Please report the recorded OD450 for S009-F7.23.19 chimeric antibody (antibody, human IgG1, kappa, V domains shown, Human-murine chimeric antibody, human IgG1/kappa constant regions) VH: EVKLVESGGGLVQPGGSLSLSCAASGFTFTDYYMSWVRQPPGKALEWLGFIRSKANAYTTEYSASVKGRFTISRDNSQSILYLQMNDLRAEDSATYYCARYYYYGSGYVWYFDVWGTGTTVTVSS VL: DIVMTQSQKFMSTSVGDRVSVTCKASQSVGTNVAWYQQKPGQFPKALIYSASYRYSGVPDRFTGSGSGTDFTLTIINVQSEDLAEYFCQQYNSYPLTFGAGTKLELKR .
Result: 0.41

Q: Please report the recorded OD450 for S009-F7.67.12 chimeric antibody (antibody, human IgG1, kappa, V domains shown, Human-murine chimeric antibody, human IgG1/kappa constant regions) VH: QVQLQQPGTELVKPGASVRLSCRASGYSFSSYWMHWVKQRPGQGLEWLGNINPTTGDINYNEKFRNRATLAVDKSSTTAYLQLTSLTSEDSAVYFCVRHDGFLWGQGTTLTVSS VL: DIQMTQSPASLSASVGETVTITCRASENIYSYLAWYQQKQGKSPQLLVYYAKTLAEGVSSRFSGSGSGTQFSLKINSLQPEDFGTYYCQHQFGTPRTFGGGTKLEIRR .
Result: 0.23

Q: Please report the recorded OD450 for S009-F7.6.17 chimeric antibody (antibody, human IgG1, kappa, V domains shown, Human-murine chimeric antibody, human IgG1/kappa constant regions) VH: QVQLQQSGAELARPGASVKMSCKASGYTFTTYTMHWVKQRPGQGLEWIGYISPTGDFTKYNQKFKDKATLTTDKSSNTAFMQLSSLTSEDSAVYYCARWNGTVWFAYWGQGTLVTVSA VL: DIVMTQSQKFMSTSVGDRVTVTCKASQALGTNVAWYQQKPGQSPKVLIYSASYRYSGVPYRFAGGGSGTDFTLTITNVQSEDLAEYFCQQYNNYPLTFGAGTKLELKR .
Result: 0.84

meta.source: patent US20250250357A1
